This collection of values is drawn from ChEMBL document CHEMBL1154674.

# System: Cerebellum
# assay-explanation: Biodistribution in NMRI mouse cerebellum at 3.7 MBq/mL, iv after 2 mins by gamma counting
# Format: ADME, organism-based
# setup-conditions: in vivo
Criterion: Drug uptake strictly under 0.4%. Met: 1. Not met: -1.

Solved cases below.
> print(dat)
                    structure.as.smiles  label.class
1      Nc1ccc2nc(-c3ccc([18F])cc3)sc2c1           -1
2  CN(C)c1ccc2nc(-c3ccc([18F])cc3)sc2c1           -1
3     CNc1ccc2nc(-c3ccc([18F])cc3)sc2c1           -1
4   [11CH3]Nc1ccc(-c2nc3ccc(O)cc3s2)cc1            1

Could you now look at the following compound, please?
Prompt: Please indicate whether the reported Drug uptake of Cc1ccc2nc(-c3ccc([18F])cc3)sc2c1 is strictly below 0.4%.
Completion: -1
